# Ki for D2 / Ki for D1 listing for each entry below
- Tested On: D2 dopamine receptors (Rattus norvegicus)
- Construct: Striatal samples from the brains of male Charles River CD rats; from tissue; host or cells: striatum of male Charles River CD rats (washed membrane pellet)
- Experiment Description: D2 dopamine receptor binding: inhibition of tritiated (S)-sulpiride binding, rat striatal samples
- Design: species or system rat (male Charles River CD rats)
- Particulars: ratio to two significant figures
Recorded Metric: Ki for D2 / Ki for D1

| Compound | Tested On | Recorded Metric | Measured Value |
| --- | --- | --- | --- |
| CN1CCc2cc(O)c(O)cc2C1C1(c2cccc(C(F)(F)F)c2)CCC1 (stereo not drawn) | D2 dopamine receptors (Rattus norvegicus) | Ki for D2 / Ki for D1 | > 16 |
| COc1cc2c(cc1O)C(C1(c3ccccc3)CCC1)N(C)CC2 (stereo not drawn) | D2 dopamine receptors (Rattus norvegicus) | Ki for D2 / Ki for D1 | > 12 |
| COc1cc2c(cc1O)C(C1(c3ccccc3Cl)CC1)N(CCO)CC2 (stereo not drawn) | D2 dopamine receptors (Rattus norvegicus) | Ki for D2 / Ki for D1 | > 83 |

###

Below, each of the compounds is paired with its reported pKi value.
- Tested On: D2 dopamine receptors (Rattus norvegicus, UniProt P61169)
- Construct: Striatal samples from the brains of male Charles River CD rats; from tissue; host or cells: striatum of male Charles River CD rats (washed membrane pellet)
- Sequence (P61169 whole entry): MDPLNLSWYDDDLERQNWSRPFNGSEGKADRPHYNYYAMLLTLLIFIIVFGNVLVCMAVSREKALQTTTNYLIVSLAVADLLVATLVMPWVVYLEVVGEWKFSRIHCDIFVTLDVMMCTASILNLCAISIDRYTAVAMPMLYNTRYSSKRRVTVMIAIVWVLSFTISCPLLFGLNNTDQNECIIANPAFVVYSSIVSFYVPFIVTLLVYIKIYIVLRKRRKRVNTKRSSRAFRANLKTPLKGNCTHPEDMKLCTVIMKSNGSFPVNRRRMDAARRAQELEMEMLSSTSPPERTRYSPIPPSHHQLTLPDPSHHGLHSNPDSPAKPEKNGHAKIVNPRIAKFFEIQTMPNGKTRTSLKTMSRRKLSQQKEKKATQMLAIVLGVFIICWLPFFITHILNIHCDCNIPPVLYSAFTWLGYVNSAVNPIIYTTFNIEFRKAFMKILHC
- Experiment Description: D2 dopamine receptor binding: inhibition of tritiated (S)-sulpiride binding, rat striatal samples
- Design: species or system rat (male Charles River CD rats)
- Particulars: rat striatum, tritiated (S)-sulpiride, pH 7.7, 4° C., 40 minutes; > = from highest concentration which displaced ≤50% of the ligand; read-out: Ki for D2 binding
- Procedure: Striatal samples from the brains of male Charles River CD rats weighing between 140-250 g were homogenised in ice-cold 50 mM Tris-HCl buffer (pH 7.4 when measured at 25° C. for D1 binding assays and pH 7.7 when measured at 25° C. for D2 binding assays) and centrifuged for 10 minutes (at 21,000 g when used for D1binding assay and 40,000 g when used for D2binding assays). The pellet was resuspended in the same buffer, again centrifuged and the final pellet stored at -80° C. […]
pKi: −log10 of the molar value.

| Compound | Relation Symbol | pKi |
| --- | --- | --- |
| COCCN1CCc2cc(OC)c(O)cc2C1C1(c2ccccc2Cl)CC1 (stereo not shown) [Example 75] | < | 5.30 |
| CN1CCc2c(cc(O)c(O)c2Cl)C1C1(c2ccccc2)CCC1 (stereo not shown) [Example 32] | < | 5.30 |
| CN1CCc2cc(Cl)c(O)cc2C1C1(c2ccccc2)CC(C)(C)C1 (stereo not shown) [Example 30] | < | 5.30 |
| CN1CCc2cc(F)c(O)cc2C1C1(c2ccccc2Cl)CCC1 (single isomer, unassigned; (+)) [Example 64] | = | 5.32 |
| COc1cc2c(cc1O)C(C1(c3cc(OC)c(OC)cc3Br)CCC1)N(C)CC2 (stereo not shown) [Example 56] | = | 4.28 |
| COc1cc2c(cc1O)C(C1(c3cccc4ccccc34)CC1)N(C)CC2 (stereo not shown) [Example 43] | = | 6.07 |
| CN1CCc2cc(Cl)c(O)cc2C1C1(c2ccccc2Cl)CCC1 (stereo not shown) [Example 22] | = | 5.74 |
| C=CCN1CCc2cc(Cl)c(O)cc2C1C1(c2ccccc2)CCC1 (stereo not shown) [Example 65] | = | 4.29 |
| CN1CCc2cc(O)c(O)cc2C1C1(c2ccc(Cl)cc2)CCCCC1 (stereo not shown) [Example 16] | = | 5.49 |
| CN1CCc2c(Cl)ccc(O)c2C1C1(c2ccccc2)CCC1 (stereo not shown) [Example 44] | = | 5.32 |
| COc1cc2c(cc1O)C(C1(c3ccccc3Cl)CCC1)N(C)CC2 (stereo not shown) [Example 35] | = | 3.62 |
| Cc1cc2c(cc1O)C(C1(c3ccccc3Cl)CC1)N(C)CC2 (stereo not shown) [Example 79] | = | 6.03 |
| COc1ccc(C2(C3c4cc(O)c(O)cc4CCN3C)CCC2)cc1 (stereo not shown) [Example 54] | = | 5.52 |
| CN1CCc2cc(F)c(O)cc2C1C1(c2ccccc2Cl)CCC1 (stereo not shown) [Example 24] | = | 5.77 |
| CN1CCc2cc(F)c(O)cc2C1C1(c2ccc(Br)cc2)CCC1 (stereo not shown) [Example 6] | = | 4.39 |
| CN1CCc2cc(O)c(O)cc2C1C1(c2cccc(Cl)c2)CCC1 (stereo not shown) [Example 33] | = | 4.64 |
| CN1CCc2cc(O)c(O)cc2C1C1(c2ccc(Cl)c(Cl)c2)CCC1 (stereo not shown) [Example 18] | = | 5.36 |
| CN1CCc2cc(O)c(O)cc2C1C1(c2ccccc2Br)CCC1 (single isomer, unassigned; (+)) [Example 60] | = | 5.70 |
| CN1CCc2cc(Cl)c(O)c(Cl)c2C1C1(c2ccccc2)CCC1 (stereo not shown) [Example 58] | = | 3.44 |
| CN1CCc2cc(F)c(O)cc2C1C1(c2ccccc2Br)CCC1 (stereo not shown) [Example 34] | = | 5.11 |
| CN1CCc2ccc(O)cc2C1C1(c2ccccc2)CCC1 (stereo not shown) [Example 41] | = | 4.89 |
| Cc1ccccc1C1(C2c3cc(O)c(O)cc3CCN2C)CCC1 (stereo not shown) [Example 4] | = | 3.59 |
| CSc1ccccc1C1(C2c3cc(O)c(O)cc3CCN2C)CCC1 (stereo not shown) [Example 71] | = | 5.74 |
| COc1cc2c(cc1O)C(C1(c3ccccc3Br)CCC1)N(C)CC2 (stereo not shown) [Example 68] | = | 5.72 |
| COc1cc2c(cc1O)C(C1(c3ccccc3)CCCCC1)N(C)CC2 (stereo not shown) [Example 36] | = | 5.36 |

###

- Tested On: D2 dopamine receptors (Rattus norvegicus, UniProt P61169)
- Construct: Striatal samples from the brains of male Charles River CD rats; from tissue; host or cells: striatum of male Charles River CD rats (washed membrane pellet)
- Experiment Description: D2 dopamine receptor binding: inhibition of tritiated (S)-sulpiride binding, rat striatal samples
- Parameters: species or system rat (male Charles River CD rats)
- Particulars: ratio to two significant figures

| Compound | Relation Symbol | Ki for D2 / Ki for D1 |
| --- | --- | --- |
| CN1CCc2cc(O)c(O)cc2C1C1(c2ccc(Br)cc2)CCC1 (centres unmarked) | = | 2300 |
| CN1CCc2cc(O)c(O)cc2C1C1(c2ccccc2)CCC1 (centres unmarked) | > | 21 |
| COc1cc2c(cc1O)C(C1(c3ccccc3Cl)CC(C)(C)C1)N(C)CC2 (centres unmarked) | = | 1700 |
| CN1CCc2ccc(O)cc2C1C1(c2ccccc2Cl)CC1 (centres unmarked) | = | 510 |
| COc1cc2c(cc1O)C(C1(c3ccccc3Cl)CC1)N(C)CC2 (centres unmarked) [Example 74] | = | 730 |
| CN1CCc2cc(F)c(O)cc2C1C1(c2ccccc2Cl)CC1 (centres unmarked) [Example 61] | = | 2500 |
| CN1CCc2ccc(O)cc2C1C1(c2ccc(Cl)cc2)CCC1 (centres unmarked) | > | 38 |
| CN1CCc2cc(O)c(O)cc2C1C1(c2ccccc2Br)CCC1 (centres unmarked) [Example 1] | = | 250 |
| CN1CCc2cc(-c3ccccc3)c(O)cc2C1C1(c2ccccc2Cl)CCC1 (centres unmarked) | = | 23 |
| CN1CCc2cc(Cl)c(O)cc2C1C1(c2ccccc2)CCC1 (single isomer, unassigned; (-)) [Example 59] | = | 620 |
| CN1CCc2cc(O)c(O)cc2C1C1(c2ccc(Cl)cc2)CCCC1 (centres unmarked) | = | 40 |
| CN1CCc2cc(O)c(O)cc2C1C1(c2ccccc2)CCCC1 (centres unmarked) | > | 25 |
| CN1CCc2cc(O)c(O)cc2C1C1(c2ccc(Cl)cc2Cl)CCC1 (centres unmarked) | = | 180 |
| Cc1ccccc1C1(C2c3cc(O)c(O)cc3CCN2C)CCC1 (centres unmarked) | = | 9000 |
| CN1CCc2cc(F)c(O)cc2C1C1(c2ccccc2Br)CCC1 (centres unmarked) | = | 4300 |
| CN1CCc2cc(F)c(O)cc2C1C1(c2ccc(Br)cc2)CCC1 (centres unmarked) | = | 14000 |
| CN1CCc2cc(O)c(O)cc2C1C1(c2ccc(Cl)c(Cl)c2)CCC1 (centres unmarked) | = | 53 |
| CN1CCc2cc(O)c(O)cc2C1C1(c2ccc(-c3ccccc3)cc2)CCC1 (centres unmarked) | = | 5.9 |
| CSc1ccccc1C1(C2c3cc(O)c(O)cc3CCN2C)CCC1 (centres unmarked) | = | 1200 |
| CN1CCc2cc(O)c(O)cc2C1C1(c2ccccc2C(F)(F)F)CCC1 (centres unmarked) | = | 830 |
| COc1cc2c(cc1O)C(C1(c3ccccc3Cl)CC1)N(C)CC2 (single isomer, unassigned; (+)) [Example 85] | = | 3200 |
| CN1CCc2cc(Cl)c(O)c(Cl)c2C1C1(c2ccccc2)CCC1 (centres unmarked) | = | 490 |
| COc1cc2c(cc1O)C(C1(c3ccc(OC(F)(F)F)cc3)CCC1)N(C)CC2 (centres unmarked) | = | 200 |
| COc1cc2c(cc1O)C(C1(c3ccc(Cl)cc3)CCC1)N(C)CC2 (centres unmarked) | > | 60 |
| CN1CCc2cc(Cl)c(O)cc2C1C1(c2ccccc2)CCC1 (centres unmarked) [Example 52] | = | 320 |
| CN1CCc2cc(Cl)c(O)cc2C1C1(c2ccccc2Cl)CCC1 (centres unmarked) | = | 780 |
| COc1cc2c(cc1O)C(C1(c3cccc4ccccc34)CC1)N(C)CC2 (centres unmarked) | = | 610 |
| CCN1CCc2cc(O)c(O)cc2C1C1(c2ccc(Cl)cc2)CCC1 (centres unmarked) | > | 4.2 |
| CN1CCc2c(cc(O)c(O)c2Cl)C1C1(c2ccccc2)CCC1 (centres unmarked) | > | 36 |
